# Tested on: Noggin (protein binding on small-molecule microarray)
# measurement-description: Noggin binders on small-molecule microarray, primary screen, biochemical, 635/667 nm fluorescence (AID 1095);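 also: score merges 667 nm feature fluorescence with signal to noise over triplicate slides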
# experimental-setup: 635 nm fluorescence, higher = more signal

# compound, composite z-score
measured = [
    ("C[C@H]1COC(=O)[C@@H]2CCCN2C(=O)[C@@H](C)COC(=O)[C@@H]2CCCN2C1=O", 0.381),
    ("[N-]=[N+]=NCc1ccccc1C[C@@]1(C(=O)O)N=C(c2ccc(OCCCO)cc2)O[C@@H]1c1ccccc1N=[N+]=[N-]", 0.0183),
    ("Cc1ccc(S[C@]2(C(=O)NCCN3CCOCC3)CC(=O)N(C3Cc4ccccc4C3)[C@@H]2c2ccc(CO)cc2I)cc1", -1.62),
    ("CCCC=C(CCC)[C@@H](NC(=O)c1ccccc1)c1ccccc1", -0.96),
    ("O=C1C2C=CC(C(O)c3ccccc3)N(n3cnnc3)C2C(=O)N1Cc1ccccc1 (stereo unspecified)", -0.0596),
    ("C=C(COC)/C(=C/C[C@@H](OC(C)=O)c1cccc(OCCO)c1)c1cc(C(=O)OC)ccc1OC", 1.56),
    ("CC(C)=C1C(=O)C(c2ccccc2)=C2CN3C(=O)N(CCc4ccccc4)C(=O)[C@]3(Cc3ccccc3)[C@H]21", -0.974),
    ("CN1C2C=C(c3ccc(CO)cc3)C(C3C(=O)N(C(N)=O)C(=O)C32)C1c1cccs1 (stereo unspecified)", 0.198),
    ("C=CC[C@]1(C(=O)O)N=C(c2ccc(OCCCO)cc2)O[C@H]1c1ccccc1", -1.1),
    ("CO[C@@H]1COC(=O)[C@H](C)NC(=O)CC=C[C@@H](C)[C@H](NS(=O)(=O)c2ccc(C)cc2)COC(=O)CC=C[C@@H]1C", -0.0396),
    ("CO[C@H]1COC(=O)[C@H](C)NC(=O)CC=C[C@@H](C)[C@H](NS(=O)(=O)c2ccc(C)cc2)COC(=O)[C@@H](OCc2ccccc2)C=C[C@@H]1C", 0.801),
    ("Cc1ccc(S[C@]2(C(=O)NC(C)C)CC(=O)N(C3Cc4ccccc4C3)[C@@H]2c2ccc(CO)cc2)cc1", -0.0057),
    ("N#Cc1ccc(NN2C(C(O)c3ccc(I)cc3)C=CC3C(=O)N(c4ccccc4)C(=O)C32)cc1 (stereo unspecified)", -0.0788),
    ("COCCOC(=O)N1C(=O)[C@@]2(c3cc(C#CC4=CCCCC4)ccc31)[C@H](C(=O)NC[C@H](O)c1ccccc1)[C@H]1C(=O)O[C@H](c3ccccc3)[C@H](c3ccccc3)N1[C@@H]2c1ccc(OCCO)cc1", 1.85),
    ("COc1cc([C@@H]2N[C@H](C(=O)O)Cc3c2[nH]c2ccccc32)cc(OC)c1OC", 0.367),
    ("C=CCC1=C[C@H]2[C@H]([C@@H]3C=C[C@]2(CC=C)C(=O)[C@]32CO2)[C@@]2(CO2)C1=O", 1.65),
]
